B1: TPR t1 (parent)
chain: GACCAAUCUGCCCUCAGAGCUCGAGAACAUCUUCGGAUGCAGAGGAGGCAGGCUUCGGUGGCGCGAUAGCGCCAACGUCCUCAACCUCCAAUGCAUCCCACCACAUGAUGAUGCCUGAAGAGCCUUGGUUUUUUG

# Variants of: B1
# EXPERIMENT: polymerase ribozyme fitness, log enrichment relative to wild type (log ratio); higher = more active; in vitro selection for triplet polymerase activity
This section presents variants with their documented polymerase ribozyme fitness (log ratio) values.
Reply briefly: the number, and no unit.

Solved entries:
C11G G117U G127U: -3.47
G60U A119G: -0.151
C11G G107C: -4.6
A29U A119G: -0.662
C13U C20U G63U: -2.31
G52U G63A C101G C114G: -6.25
C12G G42A G52A C62U C104A: -5.44
G71C C82A U112A A118U: -0.627
A68G U125A: -3.61
A18C G19U C72G C102A C104G U106A C123G: -5.8

So what does the record say about polymerase ribozyme fitness (log ratio) for C8G G47U ?
0.0211
